Reference source for all entries: PubChem BioAssay AID651725

# TARGET: Homeobox protein SIX1 (Homo sapiens) + Protein phosphatase EYA2 (Homo sapiens) (UniProt Q15475+O00167)
# Sequence (O00167 whole entry, looked up): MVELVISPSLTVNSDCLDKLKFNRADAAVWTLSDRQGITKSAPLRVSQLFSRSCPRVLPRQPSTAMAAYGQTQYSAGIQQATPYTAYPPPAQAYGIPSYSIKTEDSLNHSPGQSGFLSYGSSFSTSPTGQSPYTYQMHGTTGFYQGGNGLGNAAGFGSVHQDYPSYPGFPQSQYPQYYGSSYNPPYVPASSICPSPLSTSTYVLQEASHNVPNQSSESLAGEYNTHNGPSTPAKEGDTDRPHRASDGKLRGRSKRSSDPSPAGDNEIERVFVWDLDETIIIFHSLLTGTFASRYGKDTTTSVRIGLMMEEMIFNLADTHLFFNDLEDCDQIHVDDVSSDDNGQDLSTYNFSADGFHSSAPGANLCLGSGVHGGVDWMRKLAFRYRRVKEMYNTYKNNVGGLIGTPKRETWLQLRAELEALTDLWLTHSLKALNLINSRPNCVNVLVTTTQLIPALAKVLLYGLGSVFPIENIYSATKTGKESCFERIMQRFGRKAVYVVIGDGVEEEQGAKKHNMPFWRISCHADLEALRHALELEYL
# Sequence (Q15475 whole entry, looked up): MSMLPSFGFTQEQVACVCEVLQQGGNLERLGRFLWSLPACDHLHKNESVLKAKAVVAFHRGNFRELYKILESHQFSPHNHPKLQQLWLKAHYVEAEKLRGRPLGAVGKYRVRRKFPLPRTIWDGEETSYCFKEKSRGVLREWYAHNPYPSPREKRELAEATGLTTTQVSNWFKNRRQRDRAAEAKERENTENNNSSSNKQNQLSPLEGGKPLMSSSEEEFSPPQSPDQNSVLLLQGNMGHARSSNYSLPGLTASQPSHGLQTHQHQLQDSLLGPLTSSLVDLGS
# EXPERIMENT: qHTS Assay for Inhibitors of the Six1/Eya2 Interaction; note: % is set by controls: 0 for no effect and ±100 for the full control effect
# CONDITION_LABEL: AlphaScreen GST-Six1/His-Eya2 binding, biochemical; stronger effect = lower value
Hit rate of the full screen: of about 360,000 compounds, about 2,000 (0.56%) were called active. About 2% were inconclusive and are not listed. The full list was thinned out, with actives kept by preference.

COMPOUND	activity change
O=C(N/N=C/c1c(O)n(Cc2ccccc2)c(=O)[nH]c1=O)c1ccccc1	-70.8% (active)
O=c1[nH]c(=S)n(C2CC2)c(O)c1/C=N/N1CCOCC1	-0.819% (inactive)
COC(=O)C[C@H]1CC[C@H]2NC[C@@H](O)COC[C@@H]2O1	4.76% (inactive)
CCCCC(=O)N/N=C/c1c(O)n(CCC2=CCCCC2)c(=O)[nH]c1=O	-75.4% (active)
CCc1nnc(NS(=O)(=O)c2ccc(N=Cc3c(O)n(-c4ccccc4)c(=O)[nH]c3=O)cc2)s1	1.54% (inactive)
CCC(C)n1c(O)c(/C=N/Nc2nc3c(c(=O)n(C)c(=O)n3C)n2C)c(=O)[nH]c1=S (stereo unspecified)	-86.1% (active)
CCC(=O)CC(c1ccc([N+](=O)[O-])cc1)c1c(O)c2ccccc2oc1=O (stereo unspecified)	0.567% (inactive)
O=c1[nH]c(=O)n(CCc2ccc(F)cc2)c(O)c1/C=N/N1CCCCC1	5.39% (inactive)
CC1(C)Cc2c(C#N)c(N3CCNCC3)nc(-c3ccco3)c2CS1	-3.88% (inactive)
COP(=O)(NS(=O)(=O)c1ccccc1)OC	12.4% (inactive)
O=C(N/N=C/c1c(O)n(C2CC2)c(=S)[nH]c1=O)c1ccccc1	-88.6% (active)
COc1ccc(CCn2c(O)c(C=NC3CC3)c(=O)[nH]c2=O)cc1OC	-3.07% (inactive)
CC(C)c1ccc(-n2c(O)c(/C=N/N3CCOCC3)c(=O)[nH]c2=S)cc1	5.13% (inactive)
O=C(N/N=C/c1c(O)n(C2CC2)c(=S)[nH]c1=O)c1ccccc1Cl	-80.8% (active)
CCCCC(=O)N/N=C/c1c(O)n(CC)c(=S)n(CC)c1=O	-9.7% (inactive)
COc1ccc(-n2nnnc2C(c2cccc3ccccc23)N2CCC(n3c(=O)[nH]c4ccccc43)CC2)cc1 (stereo unspecified)	-11.3% (inactive)
COc1ccccc1-n1c(O)c(C=NC2CC2)c(=O)[nH]c1=O	0.906% (inactive)
CC[C@H]1CC2CN3CCc4c([nH]c5ccccc45)C(C(=O)OC)(C2)C13 (stereo partly specified)	-23.8% (inactive)
CC(C)c1ccc(OCC(=O)N2CCN(C)CC2)c(Br)c1	-2.15% (inactive)
O=C1NCN(c2ccccc2)C12CCN(C(c1cccs1)c1nnnn1C1CCCCC1)CC2 (stereo unspecified)	-13.5% (inactive)
CCOC(=O)[C@]12Cc3cc(OC)ccc3[C@H]1N(C(C)C)C(=O)c1ccccc12	-2.51% (inactive)
